biological target: NCK1-2 SH3 domain (aa 106-165) (Homo sapiens); construct: 106-165; GST (N); made in house; host or cells: Escherichia coli CodonPlus, Rosetta, BL21(DE3); test: Fluorescence polarization SH3 domain-PRP binding; settings: FP, 0.2 µM fluorescein-labeled peptide, SH3 domain 0-200 µM, Tris/HCl pH 7.5, 25 °C, quadratic fit, read-out: Kd
Peptide text beside a SMILES is read from it.
endpoint.label: Kd

• CC[C@H](C)[C@H](N)C(=O)N[C@@H](C)C(=O)NCC(=O)N1CCC[C@H]1C(=O)N1CCC[C@H]1C(=O)N[C@H](C(=O)N1CCC[C@H]1C(=O)N1CCC[C@H]1C(=O)N[C@@H](CCCNC(=N)N)C(=O)N[C@@H](CCC(N)=O)C(=O)N[C@@H](CO)C(=O)O)C(C)C [Peptide P9] (H-IAGPPVPPRQS-OH) = > 200 µM
• CC[C@H](C)[C@H](NC(=O)[C@H](Cc1c[nH]cn1)NC(=O)[C@@H](N)CCC(N)=O)C(=O)N1CCC[C@H]1C(=O)N[C@@H](CCCCN)C(=O)N[C@@H](CC(C)C)C(=O)N1CCC[C@H]1C(=O)N1CCC[C@H]1C(=O)N[C@@H](CCCCN)C(=O)N[C@H](C(=O)N[C@@H](Cc1ccc(O)cc1)C(=O)O)[C@@H](C)O [Peptide P10] (H-QHIPKLPPKTY-OH; N-terminus and C-terminus assumed) = > 200 µM

// next item, Kd requested
### Prompt Looking for the measured Kd of CC(C)[C@H](NC(=O)[C@@H]1CCCN1C(=O)[C@@H]1CCCN1C(=O)[C@H](C)NC(=O)[C@H](CCC(=O)O)NC(=O)[C@H](CS)NC(=O)[C@@H](N)CCCNC(=N)N)C(=O)N1CCC[C@H]1C(=O)N1CCC[C@H]1C(=O)N[C@@H](CCCNC(=N)N)C(=O)N[C@@H](CCCNC(=N)N)C(=O)N[C@@H](CCC(=O)O)C(=O)N[C@@H](CCCNC(=N)N)C(=O)NCC(=O)O [RP2, reference compound] (H-RCEAPPVPPRRERG-OH) , can you help?
### Response 1 µM
